- Test system: Streptococcus sp. 'group A'
- ASSAY COMMENT: growth inhibition of control SK(-) GAS strain, dose response, counter-screen for streptokinase expression inhibitor project, luminescence, kanamycin, BacTiterGlo, confirmation (AID 1900)
- Type: functional, organism-based
The source made the active and inactive calls.
Measured EC50, listed per entry for reference.

{"COMPOUND": "COc1cccc(C2C3=C(N=c4s/c(=C\\c5cccc(O)c5)c(=O)n42)c2ccccc2CC3)c1OC (configuration not stated)", "EC50": "20.8 µM (active)"}
{"COMPOUND": "O=C(NC(=S)N1CCN(C(c2ccccc2)c2ccccc2)CC1)c1ccc(S(=O)(=O)N2CCOCC2)cc1", "EC50": "1.14 µM (active)"}
{"COMPOUND": "CCn1cc(C(=O)O)c(=O)c2cc(F)c(N3CCN(S(=O)(=O)c4ccc(NC(C)=O)cc4)CC3)cc21", "EC50": "5.05 µM (active)"}
{"COMPOUND": "CCC(=O)Nc1ccc(Nc2nc(C)c([N+](=O)[O-])c(Nc3ccc(NC(=O)CC)cc3)n2)cc1", "EC50": "0.487 µM (active)"}
{"COMPOUND": "O=[N+]([O-])c1cccc(/C=C/c2ccc3cccc(O)c3n2)c1", "EC50": "3.36 µM (active)"}
{"COMPOUND": "CC(C)(C)c1ccc(Cn2ccc(-c3ccc4c(c3)OCO4)n2)cc1", "EC50": "9.62 µM (active)"}
{"COMPOUND": "O=C(CSc1ccc(-c2ccc(Cl)cc2)nn1)NC1CCCC1", "EC50": "> 150 µM (not active)"}

---

- STUDY SYSTEM: Voltage-gated N-type calcium channel alpha-1B subunit/Amyloid beta A4 precursor protein-binding family A member 1 (Homo sapiens, UniProt Q00975+Q02410)
- Sequence (Q00975 whole entry): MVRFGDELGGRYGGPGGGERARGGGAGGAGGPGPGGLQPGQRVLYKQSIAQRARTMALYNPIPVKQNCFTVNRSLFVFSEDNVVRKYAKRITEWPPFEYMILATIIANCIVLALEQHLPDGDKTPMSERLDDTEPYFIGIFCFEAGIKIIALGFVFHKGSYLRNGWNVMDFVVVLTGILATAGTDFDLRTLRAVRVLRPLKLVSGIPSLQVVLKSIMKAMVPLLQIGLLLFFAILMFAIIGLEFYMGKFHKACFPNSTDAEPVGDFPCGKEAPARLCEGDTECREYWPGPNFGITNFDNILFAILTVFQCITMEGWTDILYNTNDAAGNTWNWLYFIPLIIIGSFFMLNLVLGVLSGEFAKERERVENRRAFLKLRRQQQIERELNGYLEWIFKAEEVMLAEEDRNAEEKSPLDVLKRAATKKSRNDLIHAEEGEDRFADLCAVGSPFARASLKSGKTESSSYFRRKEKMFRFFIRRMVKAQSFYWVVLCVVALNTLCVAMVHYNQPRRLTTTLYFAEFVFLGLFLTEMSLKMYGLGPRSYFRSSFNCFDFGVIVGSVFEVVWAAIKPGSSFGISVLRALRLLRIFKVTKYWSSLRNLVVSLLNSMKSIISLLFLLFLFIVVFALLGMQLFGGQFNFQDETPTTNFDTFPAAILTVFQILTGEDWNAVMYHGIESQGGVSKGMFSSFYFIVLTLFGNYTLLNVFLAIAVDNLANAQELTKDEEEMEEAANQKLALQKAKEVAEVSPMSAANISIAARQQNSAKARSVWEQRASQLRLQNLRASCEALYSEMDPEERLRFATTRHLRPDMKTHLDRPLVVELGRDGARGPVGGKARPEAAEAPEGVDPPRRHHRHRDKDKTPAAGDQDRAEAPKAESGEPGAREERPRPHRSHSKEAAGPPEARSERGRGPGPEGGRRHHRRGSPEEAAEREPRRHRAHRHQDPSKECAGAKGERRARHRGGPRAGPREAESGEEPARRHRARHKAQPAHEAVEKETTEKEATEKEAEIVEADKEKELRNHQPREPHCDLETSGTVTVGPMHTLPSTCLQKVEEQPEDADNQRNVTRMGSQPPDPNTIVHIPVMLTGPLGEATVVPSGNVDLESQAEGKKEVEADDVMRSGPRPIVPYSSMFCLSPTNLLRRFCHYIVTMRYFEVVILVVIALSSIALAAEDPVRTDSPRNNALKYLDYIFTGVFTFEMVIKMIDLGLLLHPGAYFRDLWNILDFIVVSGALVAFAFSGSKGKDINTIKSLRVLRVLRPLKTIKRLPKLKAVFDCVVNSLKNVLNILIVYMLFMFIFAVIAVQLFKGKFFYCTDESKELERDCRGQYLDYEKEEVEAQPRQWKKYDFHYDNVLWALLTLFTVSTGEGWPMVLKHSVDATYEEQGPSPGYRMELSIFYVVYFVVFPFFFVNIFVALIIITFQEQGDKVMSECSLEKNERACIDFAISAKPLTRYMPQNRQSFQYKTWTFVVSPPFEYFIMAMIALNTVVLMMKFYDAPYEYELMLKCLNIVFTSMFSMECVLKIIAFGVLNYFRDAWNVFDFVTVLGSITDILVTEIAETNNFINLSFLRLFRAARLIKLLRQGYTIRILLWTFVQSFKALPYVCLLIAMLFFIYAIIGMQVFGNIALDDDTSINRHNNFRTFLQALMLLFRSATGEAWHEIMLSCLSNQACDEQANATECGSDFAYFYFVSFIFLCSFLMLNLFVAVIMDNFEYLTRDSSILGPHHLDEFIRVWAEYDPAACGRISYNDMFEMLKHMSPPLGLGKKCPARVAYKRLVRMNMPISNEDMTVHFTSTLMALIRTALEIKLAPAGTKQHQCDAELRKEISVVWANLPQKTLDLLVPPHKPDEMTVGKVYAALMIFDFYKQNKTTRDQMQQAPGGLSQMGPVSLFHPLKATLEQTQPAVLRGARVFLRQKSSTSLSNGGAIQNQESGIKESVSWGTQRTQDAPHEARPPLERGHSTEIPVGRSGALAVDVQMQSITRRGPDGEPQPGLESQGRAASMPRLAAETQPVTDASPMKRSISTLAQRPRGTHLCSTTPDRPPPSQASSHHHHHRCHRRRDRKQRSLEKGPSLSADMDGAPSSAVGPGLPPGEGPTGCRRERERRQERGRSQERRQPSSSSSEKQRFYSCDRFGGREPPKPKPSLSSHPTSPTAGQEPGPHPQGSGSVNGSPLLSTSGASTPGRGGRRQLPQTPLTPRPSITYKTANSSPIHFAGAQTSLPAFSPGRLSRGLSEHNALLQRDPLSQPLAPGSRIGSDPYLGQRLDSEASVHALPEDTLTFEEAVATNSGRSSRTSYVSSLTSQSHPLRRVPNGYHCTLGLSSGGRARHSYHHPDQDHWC
- Sequence (Q02410 whole entry): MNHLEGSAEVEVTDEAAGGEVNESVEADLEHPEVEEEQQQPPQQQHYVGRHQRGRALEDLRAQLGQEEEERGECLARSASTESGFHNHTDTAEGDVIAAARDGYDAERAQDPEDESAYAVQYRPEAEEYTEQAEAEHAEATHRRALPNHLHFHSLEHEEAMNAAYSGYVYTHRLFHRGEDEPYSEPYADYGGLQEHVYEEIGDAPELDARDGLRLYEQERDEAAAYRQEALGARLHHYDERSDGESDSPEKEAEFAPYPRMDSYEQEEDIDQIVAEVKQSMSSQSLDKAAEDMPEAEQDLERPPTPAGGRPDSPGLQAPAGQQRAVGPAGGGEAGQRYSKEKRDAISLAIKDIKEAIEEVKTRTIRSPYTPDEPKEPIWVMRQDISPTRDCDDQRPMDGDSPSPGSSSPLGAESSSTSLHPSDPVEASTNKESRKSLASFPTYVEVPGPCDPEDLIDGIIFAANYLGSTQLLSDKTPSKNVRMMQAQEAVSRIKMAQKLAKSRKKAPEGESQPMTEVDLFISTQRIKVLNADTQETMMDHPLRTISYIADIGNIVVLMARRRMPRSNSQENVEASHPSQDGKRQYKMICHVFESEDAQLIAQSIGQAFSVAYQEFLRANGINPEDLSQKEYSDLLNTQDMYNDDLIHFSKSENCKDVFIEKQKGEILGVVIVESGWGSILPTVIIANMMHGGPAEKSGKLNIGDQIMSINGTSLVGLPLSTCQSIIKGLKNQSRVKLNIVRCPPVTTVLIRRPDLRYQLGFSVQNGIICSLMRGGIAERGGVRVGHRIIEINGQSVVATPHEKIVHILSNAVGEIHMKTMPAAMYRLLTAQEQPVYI
- Assay type: protein assay
The source made the active and inactive calls.
Measured IC50, listed per entry for reference.

{"COMPOUND": "NNc1cc([N+](=O)[O-])cc2c1c(=O)n(Cc1ccccc1)[s+]2[O-] (centres undefined)", "IC50": "10.3 µM (active)"}
{"COMPOUND": "COc1ccc(CC(=O)Nc2ccc(-c3nnc(-c4ccc(C)cc4)o3)cc2)cc1", "IC50": "14.4 µM (active)"}
{"COMPOUND": "Cc1ccc(-c2nn(-c3ccccc3)cc2/C=C/C(=O)O)o1", "IC50": "17.6 µM (active)"}
{"COMPOUND": "COc1ccc(N2C(=O)CC(Sc3nnnn3-c3ccc(F)cc3)C2=O)cc1 (centres undefined)", "IC50": "11 µM (active)"}

---

- STUDY SYSTEM: Cytochrome P450 2C19 (Homo sapiens, UniProt P33261)
- Sequence (P33261 whole entry): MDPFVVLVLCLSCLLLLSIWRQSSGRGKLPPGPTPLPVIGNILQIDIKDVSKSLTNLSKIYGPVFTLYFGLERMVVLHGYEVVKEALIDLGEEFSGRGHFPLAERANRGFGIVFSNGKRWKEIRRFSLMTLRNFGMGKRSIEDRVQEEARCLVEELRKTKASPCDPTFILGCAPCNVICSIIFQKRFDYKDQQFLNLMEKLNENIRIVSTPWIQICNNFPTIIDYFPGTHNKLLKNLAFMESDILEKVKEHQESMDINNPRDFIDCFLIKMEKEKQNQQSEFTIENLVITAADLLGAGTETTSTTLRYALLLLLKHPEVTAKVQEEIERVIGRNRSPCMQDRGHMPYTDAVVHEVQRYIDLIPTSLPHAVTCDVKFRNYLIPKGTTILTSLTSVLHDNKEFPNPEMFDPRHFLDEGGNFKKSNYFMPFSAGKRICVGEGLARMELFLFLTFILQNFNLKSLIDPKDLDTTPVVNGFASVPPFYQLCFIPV
- ASSAY COMMENT: Cytochrome panel assay with activity outcomes. Panel member name: p450-cyp2c19 Compounds with AC50 equal or less than 10 uM are considered active
- Type: functional
EXPERIMENTAL READOUT: AC50

{"COMPOUND": "Cn1cnc(CCN)c1", "RESULT": "inconclusive"}
{"COMPOUND": "C=C1C/C(=C\\C)C(=O)O[C@@H]2CCN3CC=C(COC(=O)[C@@]1(C)O)[C@H]23", "RESULT": "inconclusive"}
{"COMPOUND": "COc1cc(OC)cc(C(=O)NCC(=O)OC2CCOC2=O)c1 (stereo unspecified)", "RESULT": "inconclusive"}
{"COMPOUND": "COc1ccccc1N=C(S)NNC(=O)c1c(Cl)c(C)nn1C", "RESULT": "inconclusive"}
{"COMPOUND": "Nc1ccc2[nH]cc(CCC(=O)O)c2c1", "RESULT": "inconclusive"}

---

Below are AC50 values recorded for Cytochrome P450 3A4 (Homo sapiens, UniProt P08684).

{"SMILES STRUCTURE": "O=[N+]([O-])c1ccc2nc(-c3ccc(Cl)cc3)n(OCc3ccccc3)c2c1", "AC50": "inconclusive"}
{"SMILES STRUCTURE": "COC(=O)N1CCC2(CC1)CCN(c1cccc(-c3ccccc3)c1)CC2", "AC50": "inconclusive"}
{"SMILES STRUCTURE": "Clc1ccccc1-c1cc(NCc2ccccc2)ncn1", "AC50": "inconclusive"}
{"SMILES STRUCTURE": "CS(=O)(=O)Nc1ccc(S(=O)(=O)N2CCOCC2)cc1", "AC50": "inconclusive"}

---

Measured IC50, listed per entry for reference.
- STUDY SYSTEM: UniProt:P49327
- ASSAY COMMENT: FAS thioesterase domain inhibitors, dose response, biochemical, endpoint fluorescence intensity, uHTS hits (AID 624327);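 note: fluorescence from hydrolysis of an O-methyl fluorescein acyl ester substrate by the enzyme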
- Format: functional
Calls of active or inactive are those of the source.
EXPERIMENTAL READOUT: IC50

{"COMPOUND": "O=C(NCc1ccc2c(c1)OCO2)c1cc([N+](=O)[O-])ccc1N1CCCCC1", "RESULT": "10.5 µM (active)"}
{"COMPOUND": "Cc1ccccc1/N=C1\\C(Cl)=C(O)OC1OC(=O)c1ccco1 (stereo not drawn)", "RESULT": "3.24 µM (active)"}
{"COMPOUND": "Fc1c(F)c(F)c(N/N=C/c2c[nH]c3ccccc23)c(F)c1F", "RESULT": "11.5 µM (active)"}
{"COMPOUND": "CCN(CC)C(=O)C1=C(C)N(Cc2ccc(F)cc2)C(=O)C(CC(=O)NC(c2ccccc2)c2ccccc2)C1 (stereo not drawn)", "RESULT": "9.6 µM (active)"}
{"COMPOUND": "COc1cc2ncc(S(=O)(=O)c3ccccc3)c(N3CCCC(C)C3)c2cc1OC (stereo not drawn)", "RESULT": "4.78 µM (active)"}
{"COMPOUND": "CC(NC(=O)COC(=O)c1cc(NS(=O)(=O)c2ccc(Cl)c([N+](=O)[O-])c2)ccc1O)C1CC2CCC1C2 (stereo not drawn)", "RESULT": "11.1 µM (active)"}
{"COMPOUND": "O=C1S/C(=C\\c2ccc(O)c([N+](=O)[O-])c2)C(=O)N1Cc1cccc([N+](=O)[O-])c1", "RESULT": "3.83 µM (active)"}
{"COMPOUND": "CCOc1ccc(NC(=O)CN(c2ccc([N+](=O)[O-])cc2)S(=O)(=O)c2ccccc2)cc1", "RESULT": "10.5 µM (active)"}
{"COMPOUND": "CCn1c(SCC(=O)Nc2ncc(C(F)(F)F)cc2Cl)nnc1-c1cccc(C)c1", "RESULT": "3.66 µM (active)"}
{"COMPOUND": "COc1ccc([N+](=O)[O-])cc1NC(=O)c1ccc(N(Cc2ccccc2C)S(C)(=O)=O)cc1", "RESULT": "9.88 µM (active)"}
{"COMPOUND": "N#Cc1cc2ccc(N3CCOCC3)cc2cc1C#N", "RESULT": "5.9 µM (active)"}
{"COMPOUND": "O=C(Cc1ccc(S(=O)(=O)N2CCOCC2)s1)N1CCN(S(=O)(=O)c2ccccc2[N+](=O)[O-])CC1", "RESULT": "0.241 µM (active)"}
{"COMPOUND": "CCN1C(=O)[C@H]2[C@@H](c3ccc(C)cc3)N3C(=O)N(c4cccc(Cl)c4)C(=O)[C@@]3(Cc3ccc(Cl)cc3)[C@H]2C1=O", "RESULT": "12 µM (active)"}

---

Measured EC50, listed per entry for reference.
- STUDY SYSTEM: Short transient receptor potential channel 4 (Mus musculus)
- Sequence (Q9QUQ5 whole entry): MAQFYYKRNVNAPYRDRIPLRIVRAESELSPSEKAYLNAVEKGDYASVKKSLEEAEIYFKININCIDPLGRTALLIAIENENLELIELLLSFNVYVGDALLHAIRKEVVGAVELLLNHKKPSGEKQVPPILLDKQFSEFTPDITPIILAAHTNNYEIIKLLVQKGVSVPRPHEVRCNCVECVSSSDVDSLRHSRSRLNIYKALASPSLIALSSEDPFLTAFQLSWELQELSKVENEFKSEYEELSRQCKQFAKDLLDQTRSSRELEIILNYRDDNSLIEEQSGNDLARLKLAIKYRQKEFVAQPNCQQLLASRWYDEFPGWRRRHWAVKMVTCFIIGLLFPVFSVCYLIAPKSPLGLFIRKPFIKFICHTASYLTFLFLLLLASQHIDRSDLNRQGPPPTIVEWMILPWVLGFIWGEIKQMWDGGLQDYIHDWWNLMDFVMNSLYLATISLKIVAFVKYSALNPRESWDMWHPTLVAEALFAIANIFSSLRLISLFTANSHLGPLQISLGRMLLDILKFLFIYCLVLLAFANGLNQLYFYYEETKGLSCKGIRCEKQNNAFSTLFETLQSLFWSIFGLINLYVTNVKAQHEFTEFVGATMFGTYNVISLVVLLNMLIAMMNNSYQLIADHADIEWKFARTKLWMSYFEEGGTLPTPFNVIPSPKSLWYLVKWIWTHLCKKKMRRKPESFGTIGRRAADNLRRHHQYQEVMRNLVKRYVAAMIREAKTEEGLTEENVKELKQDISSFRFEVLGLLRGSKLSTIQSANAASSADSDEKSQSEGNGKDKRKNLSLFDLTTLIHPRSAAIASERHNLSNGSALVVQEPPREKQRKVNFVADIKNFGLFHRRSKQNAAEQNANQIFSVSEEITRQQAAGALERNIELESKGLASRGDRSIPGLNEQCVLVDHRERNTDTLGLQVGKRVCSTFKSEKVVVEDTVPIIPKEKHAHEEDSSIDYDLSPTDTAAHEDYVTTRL
- ASSAY COMMENT: mouse TRPC4 channel inhibitors, dose response, cell-based, HEK293 TRPC4/mu-opioid, Fluo-4 calcium (AID 434942);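 note: potency of inhibitors blocking the TRPC4 calcium response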
- Format: functional
Calls of active or inactive are those of the source.

{"COMPOUND": "CCOc1cc(CNCc2cccs2)ccc1OCC(=O)NC(C)(C)C", "STUDY SYSTEM": "Short transient receptor potential channel 4 (Mus musculus)", "EC50": "2110 nM (active)"}
{"COMPOUND": "Cc1cc(Br)c(NC(=O)CN(C)CCOc2ccccc2)c(Br)c1", "STUDY SYSTEM": "Short transient receptor potential channel 4 (Mus musculus)", "EC50": "5960 nM (active)"}
{"COMPOUND": "C=CCOc1ccc(Br)cc1CNC(C)(C)CO", "STUDY SYSTEM": "Short transient receptor potential channel 4 (Mus musculus)", "EC50": "3760 nM (active)"}
{"COMPOUND": "Cc1ccc2c(c1)N(C(=O)CCC(=O)Nc1ccccc1Br)CC(C)O2 (centres undefined)", "STUDY SYSTEM": "Short transient receptor potential channel 4 (Mus musculus)", "EC50": "1680 nM (active)"}
{"COMPOUND": "Cn1nnnc1SCCNCc1ccccc1OCc1ccc(Cl)cc1", "STUDY SYSTEM": "Short transient receptor potential channel 4 (Mus musculus)", "EC50": "1330 nM (active)"}
{"COMPOUND": "CCn1c(SCC(=O)c2cc(C)n(CC3CCCO3)c2C)nc2ccccc21 (centres undefined)", "STUDY SYSTEM": "Short transient receptor potential channel 4 (Mus musculus)", "EC50": "5310 nM (active)"}
{"COMPOUND": "Cc1cc(OCc2cc(C(=O)NCC3(C)COC3)no2)cc(C)c1Cl", "STUDY SYSTEM": "Short transient receptor potential channel 4 (Mus musculus)", "EC50": "2370 nM (active)"}
{"COMPOUND": "COc1ccc(O)c(C(=O)c2cnc3c(c2)c(=O)[nH]c(=O)n3C)c1", "STUDY SYSTEM": "Short transient receptor potential channel 4 (Mus musculus)", "EC50": "1500 nM (active)"}
{"COMPOUND": "Cc1ncsc1CCOC(=O)C12CC3CC(CC(C3)C1)C2", "STUDY SYSTEM": "Short transient receptor potential channel 4 (Mus musculus)", "EC50": "5310 nM (active)"}

Numbers sourced from ChEMBL document CHEMBL1201862.
